Exercise: for every item that follows, state its recorded pEC50.
Molecular target: T1, GIP Receptor (Homo sapiens, UniProt P48546)
T1 construct: host or cells: HEK293T
T1 sequence (P48546 22-466): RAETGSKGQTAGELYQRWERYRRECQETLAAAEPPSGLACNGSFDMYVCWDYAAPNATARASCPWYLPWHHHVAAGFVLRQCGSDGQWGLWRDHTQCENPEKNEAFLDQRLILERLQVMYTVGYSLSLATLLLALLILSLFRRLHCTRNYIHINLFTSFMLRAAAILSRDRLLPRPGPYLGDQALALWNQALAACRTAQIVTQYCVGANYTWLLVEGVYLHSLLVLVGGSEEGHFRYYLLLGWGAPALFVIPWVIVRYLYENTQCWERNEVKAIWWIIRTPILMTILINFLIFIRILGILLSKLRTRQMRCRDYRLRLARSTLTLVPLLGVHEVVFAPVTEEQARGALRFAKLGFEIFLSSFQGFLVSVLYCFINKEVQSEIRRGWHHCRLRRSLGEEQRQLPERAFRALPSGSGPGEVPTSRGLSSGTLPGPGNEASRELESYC
Assay: GIP receptor-mediated bioluminescence in HEK293T cells with chimeric promiscuous G protein (FIG. 5, Table II)
Type: cell-based
Conditions: HEK293T cells, GIP Receptor + promiscuous G protein; luminescence vs GIP concentration
Numbers only, as −log10 of the molar value.

// worked examples, pEC50 included
Input Mt-clytin K168V: Mitochondrial K168V modified Clytin, SEQ ID NO:26 (protein) MSVLTPLLLRGLTGSARRLPVPRAKIHSLPPEGKLRPNFDNPKWVNRHKFMFNFLDINGDGKITLDEIVSKASDDICAKLGATPEQTKRHQDAVEAFFKKIGMDYGKEVEFPAFVDGWKELANYDLKLWSQNKKSLIRDWGEAVFDIFDKDGSGSISLDEWKAYGRISGICSSDEDAEKTFKHCDLDNSGVLDVDEMTRQHLGFWYTLDPNADGLYGNFVP . Output pEC50: 7.77

Input Mt-clytin wt: Mitochondrial Wild-type Clytin (mt-Clytin), SEQ ID NO:5, with COX8 mitochondrial leader sequence (protein, listed as Clytia gregaria) MSVLTPLLLRGLTGSARRLPVPRAKIHSLPPEGKLRPNFDNPKWVNRHKFMFNFLDINGDGKITLDEIVSKASDDICAKLGATPEQTKRHQDAVEAFFKKIGMDYGKEVEFPAFVDGWKELANYDLKLWSQNKKSLIRDWGEAVFDIFDKDGSGSISLDEWKAYGRISGICSSDEDAEKTFKHCDLDNSGKLDVDEMTRQHLGFWYTLDPNADGLYGNFVP . Output pEC50: 7.89

Provide pEC50 values for the following items, in order.
1. Mt-obelin: Mitochondrial Wild-type Obelin (mt-Obelin), SEQ ID NO:7 (protein, listed as Obelia longissima) MSVLTPLLLRGLTGSARRLPVPRAKIHSLPPEGKLMSSKYAVKLKTDFDNPRWIKRHKHMFDFLDINGNGKITLDEIVSKASDDICAKLEATPEQTKRHQVCVEAFFRGCGMEYGKEIAFPQFLDGWKQLATSELKKWARNEPTLIREWGDAVFDIFDKDGSGTITLDEWKAYGKISGISPSQEDCEATFRHCDLDNSGDLDVDEMTRQHLGFWYTLDPEADGLYGNGVP
2. Mt-clytin K168Y: Mitochondrial K168Y modified Clytin, SEQ ID NO:28 (protein) MSVLTPLLLRGLTGSARRLPVPRAKIHSLPPEGKLRPNFDNPKWVNRHKFMFNFLDINGDGKITLDEIVSKASDDICAKLGATPEQTKRHQDAVEAFFKKIGMDYGKEVEFPAFVDGWKELANYDLKLWSQNKKSLIRDWGEAVFDIFDKDGSGSISLDEWKAYGRISGICSSDEDAEKTFKHCDLDNSGYLDVDEMTRQHLGFWYTLDPNADGLYGNFVP

Reply:
1. 7.86
2. 7.79
